testedSystem: Luciferin 4-monooxygenase (Photinus pyralis) (UniProt P08659)
Sequence (P08659 whole entry, looked up): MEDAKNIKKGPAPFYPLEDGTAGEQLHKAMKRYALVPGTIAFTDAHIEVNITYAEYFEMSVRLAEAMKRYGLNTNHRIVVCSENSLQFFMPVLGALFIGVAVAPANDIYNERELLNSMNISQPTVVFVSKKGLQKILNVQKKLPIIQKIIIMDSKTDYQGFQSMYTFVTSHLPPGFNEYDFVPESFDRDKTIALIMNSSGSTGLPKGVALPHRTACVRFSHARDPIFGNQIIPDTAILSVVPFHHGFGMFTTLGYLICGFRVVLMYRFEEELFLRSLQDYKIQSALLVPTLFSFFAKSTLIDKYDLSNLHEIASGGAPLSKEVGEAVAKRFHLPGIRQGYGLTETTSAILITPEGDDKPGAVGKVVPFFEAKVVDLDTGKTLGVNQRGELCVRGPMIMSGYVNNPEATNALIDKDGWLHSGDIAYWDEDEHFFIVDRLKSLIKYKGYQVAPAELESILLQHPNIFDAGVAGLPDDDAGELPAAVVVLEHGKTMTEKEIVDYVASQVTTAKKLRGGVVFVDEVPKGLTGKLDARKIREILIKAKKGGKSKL
experimentalDetails: Firefly luciferase inhibition profiling of diverse chemical library using quantitative high-throughput screening; note: nearly all actives have a fitted effect of over 65% in size
assayContext: purified P. pyralis luciferase, luminescence, biochemical; series mostly up to 172 µM
Screen size: about 76,000 compounds; about 1,900 (2.5%) were called active. Another 5% or so got no clear call; they are omitted. Calls come from the whole dose curve; as a rule, active = well fitted inhibition curve with a large enough effect; inconclusive = small, poorly fitted or top-dose-only effect; inactive = flat fitted curve, though single readings scatter. The sample holds actives, similar compounds and a random draw of the others, so the mix is not that of the screen.
Outcomes: active, inactive

givenSmiles | testedSystem | categoryLabel
COc1cccc(Nc2cc3c(cn2)CN(C)CCN3C)c1 | Luciferin 4-monooxygenase (Photinus pyralis) (UniProt P08659) | active
Cc1ccc(C(=O)N2[C@H]3CC[C@@H]2c2cnc(-c4ccccc4)nc2C3)c(C)c1 | Luciferin 4-monooxygenase (Photinus pyralis) (UniProt P08659) | active
COc1ccc(C(=O)NC[C@H]2C[C@@H]3CCN2C[C@@H]3c2cc(-c3ccccc3)nn2C)cc1 | Luciferin 4-monooxygenase (Photinus pyralis) (UniProt P08659) | inactive
C=CCN(C)C[C@H]1CN2CC[C@H]1C[C@@H]2CNC(=O)Nc1cccc(SC)c1 | Luciferin 4-monooxygenase (Photinus pyralis) (UniProt P08659) | inactive
O=C(Nc1ccccc1)N1C[C@@H]2C[C@H](C1)c1c(-c3ccc(Cl)cc3)ccc(=O)n1C2 | Luciferin 4-monooxygenase (Photinus pyralis) (UniProt P08659) | inactive

Measured values drawn from PubChem BioAssay AID1347043 for this set.
